self-cleavage kobs at 640 uM GlcN6P by entry:
B1: glmS ribozyme (parent)
chain: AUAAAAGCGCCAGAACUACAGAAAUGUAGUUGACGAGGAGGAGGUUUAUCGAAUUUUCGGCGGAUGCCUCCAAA

Variants of: B1
Assay: self-cleavage kobs at 640 uM GlcN6P; higher = faster cleavage; RNA array
Conditions: with glucosamine-6-phosphate
This sample holds only a part of the variants without activity.

{"columns": ["ORDERED_RESIDUES", "self-cleavage kobs at 640 uM GlcN6P"],
 "data": [
  ["AUAAAAGCGUCAGAACUACAGAAAUGUAGUUGACGAGGAGGAGGUUUAUCGAAUUUUCGUCGGAUGUCUCCAAA [C10U G60U C67U]", "< 1e-05 s⁻¹"],
  ["AUAAAAGUGCCAGAACUACAGAAAUGUAGUUGACGAGGAGGAGGUUUAUCGAAUUUUCUGCGGAUGCCUCCAAA [C8U G59U]", "< 1e-05 s⁻¹"],
  ["AUAAAAGGGCCAGAACUACAGAAAUGUAGUUGACGAGGAGGAAGUUUAUCGAAUUUUCGGCGGAUGCCUCCAAA [C8G G43A]", "< 1e-05 s⁻¹"],
  ["AUAAAAGGGCCAGAACUACAGAAAUGUAGUUGACGAGGAGUAGGUUUUUCGAAUUUUCGGCGGAUGCCUUCAAA [C8G G41U A48U C70U]", "< 1e-05 s⁻¹"],
  ["AUAAAAGCGCCAGAACUACAGAAAUGUAGUUGACGAGGAGGAGGUUUAUCGAAUGUUCGGCAUAUGCCUCCAAA [U55G G62A G63U]", "< 1e-05 s⁻¹"],
  ["AUAAAAGCGCCUGAACUACAGAAAUGUAGUUGACGAGGAGGAGGUUUAUCGAAUUUUCGGCGGAUGCCUCGAAA [A12U C71G]", "0.00125 s⁻¹"],
  ["AUAAAAGCGCCAGAACUACAGAAAUGUAGCUGACGAGGAGGAGGUUUAUCGAAUUAUCGGCGGAUGCCUCCAAA [U30C U56A]", "6.11e-05 s⁻¹"],
  ["AUAAAAGCGCCAGAACUACAGAAAUGUAGUUGACGAGGAGGAGGUUUAUCGAAUUUACUGCGGAUGCCUCCAAA [U57A G59U]", "< 1e-05 s⁻¹"],
  ["AUAAAAGCGCCAGAACUACAGAAAUGUAGUUGACGAGUAGGAGAUUUAUCGAAUUUUCGGCGGAUGCCUCCAAA [G38U G44A]", "< 1e-05 s⁻¹"],
  ["AUAAAAGCGCCAGAACUACAGAAAUGUAGUCGACGAGGAGGAGGUUUAUCGAAUUUUCGGCGGAUACAGCCAAA [U31C G66A C68A U69G]", "7.97e-05 s⁻¹"],
  ["AUAAAAGCACCAGAACUACAGAAAUGUAGUUGACGAGGAGGAGGUUUAUCGAAUUUUCGGCGUAUGCCUUCAAA [G9A G63U C70U]", "< 1e-05 s⁻¹"],
  ["AUAAAAGCGCCAGAACUACAGAAAUGUAGUUGACGAGGAGGAGGUUUAUCGAAUGUUAGGCGGAUGCCUCCAAA [U55G C58A]", "6.45e-05 s⁻¹"],
  ["AUAAAAGCGCCAGAACUACAGAAAUGUAGUUGACGAGGAGGAUGUUUAUCGGAUUUUCGGCGGAUGCCUCCAAA [G43U A52G]", "< 1e-05 s⁻¹"],
  ["AUAAAAGCGCAAGAACUACAGAAAUGUAGUUUACGAGGAGGAGGUUUAUCGAAUUUUCGGCGGAUGCCUGCAAA [C11A G32U C70G]", "0.000101 s⁻¹"],
  ["AUAAAAGCGCCAGAACUACAGAAAUGUACGUGACGAGGAGGAGGUUUAUCGAAUUUUCGGCGGAUGCCUUCAAA [G29C U30G C70U]", "0.000861 s⁻¹"],
  ["AUAAAAGCGCAAGAACUACAGAAAUGUAGUUGUCGAGGAGGAGGUUUAUCGAAUUUUCGGCGGAUACCUCCAAA [C11A A33U G66A]", "< 1e-05 s⁻¹"],
  ["AUAAAAGCGCCAGAACUACAGAAAUGUAGUUGCCGAGGAGGAGGGUUAUCGAAUCUCCGGCGGUUGCCUCCAAA [A33C U45G U55C U57C A64U]", "< 1e-05 s⁻¹"],
  ["AUAAAAGCGCCAGAACUACAGAAAUGUAGUUGACGGGGAGGCGGUUUAUCGAAUUUCCUGCGGAUGCCUCCAAA [A36G A42C U57C G59U]", "< 1e-05 s⁻¹"],
  ["AUAAAAGCGCCAGAACUACAGAAAUGUAGUGGACGAGGAGGAGGUUUAUCGAAUUUUCGGCGGAUGCCUCUAAA [U31G C71U]", "0.00235 s⁻¹"],
  ["AUAAAUGCGCCAGAACUACAGAAAUGUAGUUUACGAGGAGGAGGUUUAUCGAAUUUUCGGCGGAUGCCUCCAAA [A6U G32U]", "< 1e-05 s⁻¹"],
  ["AUAAAAGCGCCAGAACUACAGAAAUGUAGUUGACGAGGAGGAGGUUAAUCGAAUCUUCGGCGGAUGCCUCCAAA [U47A U55C]", "0.00441 s⁻¹"],
  ["AUAAAAGCGACAGAAAUACAGAAAUGUAGUUGACGAGGAGGAGGUUUAUCGAAUUUUCGGCGGAUGCAUCCAAA [C10A C16A C68A]", "0.000126 s⁻¹"],
  ["AUAAAAGCGCCAGAACUACAGAAAUGUAGUUGUCGAGGAGAAGAUUUAUCGAAUUUUCGGCGGUUGCCUCCAAA [A33U G41A G44A A64U]", "< 1e-05 s⁻¹"],
  ["AUAAAAGCGCCUGAACUACAGAAAUGUAGUUGACGAGGAGGAGGUUUAUCGAAUUUUCGGCGGACGCCUUCAAA [A12U U65C C70U]", "0.000322 s⁻¹"],
  ["AUAAAAUCGCCAGAACUACAGAAAUGUAGUUGACGAGGAGGAGGUUUAUCGAAUUUACGGCGGAUGCCUCCAAA [G7U U57A]", "< 1e-05 s⁻¹"],
  ["AUAAAAGCGCCAGAACUACAGAAAUGUAGUUGACGACGAGGAGGUUUAUCGAAUUUUCCGCGGAUGCCUCCAAA [G37C G59C]", "< 1e-05 s⁻¹"],
  ["AUAAAAGCGCCAGAACUACAGAAAUGUAGUGGACGACCAGGAGGUUUAUCGAAUUUUCGGCGGAUGCCUCCAAA [U31G G37C G38C]", "< 1e-05 s⁻¹"],
  ["AUAAAAGCGCCAGAACUACAGAAAUGUAGUUGACGAGGAGGAGGUUUAUCGAAUUUUCGUCGGAUGCCUACAAA [G60U C70A]", "< 1e-05 s⁻¹"],
  ["AUAAAAGCGCCCGAACUACAGAAAUGUAGUUGACGAGGAGGAGGUUGAUCGAAUUUUCGGCGGAUGCCUCCAAA [A12C U47G]", "0.00106 s⁻¹"],
  ["AUAAAAGCGCCAGAACUACAGAAAUGUAGUUGACGAGGAGGAGGUUUAUCGAAUGUUCGGCGGAUACCUCCAAA [U55G G66A]", "0.00303 s⁻¹"],
  ["AUAAAGGCGCCAGAACUACAGAAAUGUAGUUGACGAGGGGGAGGUUUAUCGAAUUUUCGGCGGAUGCCUCCAAA [A6G A39G]", "0.000144 s⁻¹"],
  ["AUAAAAGCGACAGAACUACAGAAAUGUAGUUGACGAGGAGCAGGUUUUUCGAAUUUUCGGCGGAUGCCUCCAAA [C10A G41C A48U]", "< 1e-05 s⁻¹"],
  ["AUAAAAGCGCCAGAACUACAGAAAUGUAGUUGACGAGGAGGAGAUUUAUCAAAUUUUCGGCGGAGGGCUCCAAA [G44A G51A U65G C67G]", "< 1e-05 s⁻¹"],
  ["AUAAAAGCGCCAGAAAUACAGAAAUGUAGUUGACGAGGAGGAGGUUUAUCGCAUUUUCGGCGGAUGCCUCCAAA [C16A A52C]", "< 1e-05 s⁻¹"],
  ["AUAAAAGCGCCAUAUCUACAGAAAUGUAGUUUACGAGGAGGAGGUUUAUCGAAUUUUCGGCCGAUGCAUCCAAA [G13U A15U G32U G62C C68A]", "7.42e-05 s⁻¹"],
  ["AUAAAAGCGCCAGAACUACAGAAAUGUAGUUGACGAGGAGGAGGUUUAUCGAACUUUCGGCGGAUGGCUCCAAA [U54C C67G]", "0.000519 s⁻¹"],
  ["AUAAAAGCGCCAGAACUACAGAAAUGUAGUUGACCAGGAGGAGCCUUGUCGAAUUUUCGGCGGAUGCCUCCAAA [G35C G44C U45C A48G]", "< 1e-05 s⁻¹"],
  ["AUAAAAGCGCCAGAACUACAGAAAUGUAGUCGACGAGGAGGAGGUUUGUCGAAUUUUCGACGGAUGCCUCCAAA [U31C A48G G60A]", "< 1e-05 s⁻¹"],
  ["AUAAAAUCGCCAGAACUACAGAAAUGUAGUUGACCAGGAGGAGGUUUAUCGAAUUUUCGGCGGAUGCCUCCAAA [G7U G35C]", "< 1e-05 s⁻¹"],
  ["AUAAAAUCGCCAGAACUACAGAAAUGUAGUUGACUAGGAGGAGGUAUAUCGAAUUUUCGGCGGAUGUCCCCAAA [G7U G35U U46A C67U U69C]", "< 1e-05 s⁻¹"],
  ["AUAAAAACGCCAGAACUACAGAAAUGUAGUUGACGAGGAGGAGGUUUAUCGAAUUUUCCGCGGAUGCCUCCAAA [G7A G59C]", "< 1e-05 s⁻¹"]
]}
